- testSystem: PIK3CD (Human)
- assayDetails: Enzyme Assay
measure: IC50 (nM)

Some compounds with known IC50 results, for comparison:
Nc1nc(N2CCC[C@H]2c2nc3cccc(Cl)c3c(=O)n2N2CCCCC2)c2nc[nH]c2n1 :: 12
COc1cccc2nc([C@@H]3CCCN3c3ncnc(N)c3C#N)n(-c3ccccc3)c(=O)c12 :: 76
O=c1c2c(Cl)cccc2nc([C@@H]2CCCN2c2ncnc3scnc23)n1-c1ccccc1 :: 4
Cn1nccc1-n1c([C@@H]2CSCN2c2ncnc(N)c2C#N)nc2cccc(Cl)c2c1=O :: 7200
Nc1nc(N2C[C@@H](F)C[C@H]2c2nc3cccc(C(F)(F)F)c3c(=O)n2-c2cccnc2)c2nc[nH]c2n1 :: 64
N#Cc1c(N)ncnc1N1C[C@@H](O)C[C@H]1c1nc2ccc(F)c(F)c2c(=O)n1-c1ccccc1 :: 96
O=c1c2c(Cl)cccc2nc([C@@H]2C[C@H](OC(F)F)CN2c2ncnc3[nH]cnc23)n1-c1ccccc1 :: 5
O=c1c2c(Cl)cccc2nc([C@@H]2CSCN2c2ncnc3[nH]cnc23)n1-c1ccccc1 :: 18

a: CO[C@H]1C[C@@H](c2nc3cccc(C(F)(F)F)c3c(=O)n2-c2ccccc2)N(c2nc(N)nc(C)c2C#N)C1
b: N#Cc1c(N)ncnc1N1C[C@@H](O)C[C@H]1c1nc2cccc(C(F)(F)F)c2c(=O)n1-c1ccccc1
c: Cc1nc(N)nc(N2C[C@@H](O)C[C@H]2c2nc3cccc(Cl)c3c(=O)n2-c2ccccc2)c1C#N
Order the 3 compounds from highest to lowest IC50. Response format: the labels, sorted as the prompt asks.
a, c, b

1: CC1(n2c([C@@H]3CCCN3c3nc(N)nc4[nH]cnc34)nc3cccc(Cl)c3c2=O)CC1
2: Cc1ccccc1-n1c([C@@H]2CSCN2c2ncnc(N)c2C#N)nc2cccc(Cl)c2c1=O
3: CS(=O)(=O)N1CC[C@@H](n2c([C@@H]3CCCN3c3ncnc4[nH]cnc34)nc3cccc(Cl)c3c2=O)C1
Please rank these compounds by IC50 in descending order. In your reply, arrange the labels in the requested order.
3, 1, 2

a: Nc1nc(N2CCC[C@H]2c2nc3cccc(Cl)c3c(=O)n2N2CCOCC2)c2nc[nH]c2n1
b: O=c1c2c(Cl)cccc2nc([C@@H]2CCON2c2ncnc3scnc23)n1-c1ccccc1
Would you kindly point out which of a and b has the smaller IC50 figure? Your answer should be the label attached to the chosen record.
b
